- Measurement target: human GPR120 (Homo sapiens (Human), UniProt Q5NUL3)
- Sequence (Q5NUL3 whole entry): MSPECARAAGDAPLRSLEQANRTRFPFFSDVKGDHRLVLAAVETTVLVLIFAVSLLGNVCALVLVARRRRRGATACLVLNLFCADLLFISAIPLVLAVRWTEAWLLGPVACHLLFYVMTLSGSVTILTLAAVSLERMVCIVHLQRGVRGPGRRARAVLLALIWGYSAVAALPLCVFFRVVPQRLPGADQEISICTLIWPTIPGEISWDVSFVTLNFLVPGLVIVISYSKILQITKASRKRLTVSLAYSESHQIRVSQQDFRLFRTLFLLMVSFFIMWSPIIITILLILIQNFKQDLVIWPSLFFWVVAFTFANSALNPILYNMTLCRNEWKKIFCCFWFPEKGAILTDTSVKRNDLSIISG
- Assay: GPR120 pERK AlphaScreen SureFire Assay (human GPR120 pERK assay)
- Study conditions: CHOA12 or CHO-K1 cells stably transfected with the short form of human GPR120 receptor; phosphorylated ERK; read-out: EC50 values measured in the human GPR120 pERK assay
Reported metric: EC50 (nM)

The following compounds have reported results that may help.
> print(dat)
                                   compound  observed
1  O=C(O)CCCC12CCC(OCc3ccc(Oc4ccccc4)cc3)(CC1)C2      1720
2  O=C(O)CCCC12CCC(OCc3ccc(Cl)cc3Cl)(CC1)C2      1100
3  CNC(=O)CCCC12CCC(OCc3cccc(Oc4ccccc4)c3)(CC1)C2      3030

[A] CC(C)Oc1ccc(Cl)cc1COC12CCC(CCCC(=O)O)(CC1)C2
[B] NC(=O)CNC(=O)CCCC12CCC(OCc3cc(F)cc(Oc4ccccc4)c3)(CC1)C2
[C] COc1ccc(COC23CCC(CCCC(=O)O)(CC2)C3)c(OC(F)(F)F)c1
IN: Would you mind ranking these compounds by ascending EC50? Returns: the labels listed in the requested order.
OUT: C, A, B

[P] CC(OC12CCC(CCCC(=O)O)(CC1)C2)c1cccc(C(F)(F)F)c1 (stereo not drawn)
[Q] O=C(O)CCCC12CCC(OCc3ccc(Cl)c(Cl)c3)(CC1)C2
IN: # query: argmin of EC50 over P and Q Identify your selection by its label.
OUT: Q

###

- Measurement target: human GPR120 (Homo sapiens (Human))
- Assay: GPR120 pERK AlphaScreen SureFire Assay (human GPR120 pERK assay)
- Study conditions: CHOA12 or CHO-K1 cells stably transfected with the short form of human GPR120 receptor; phosphorylated ERK; read-out: EC50 values measured in the human GPR120 pERK assay
Reported metric: EC50 (nM)

Check out these entries, answers already filled in.
> print(dat)
                                   molecule                   measurement.target  observed
1  COc1cc(Cl)ccc1COC12CCC(CCCC(=O)O)(CC1)C2  human GPR120 (Homo sapiens (Human))      2300
2  O=C(O)CCCC12CCC(OCc3cccc(OC(F)(F)F)c3)(CC1)C2  human GPR120 (Homo sapiens (Human))       620
3  O=C(O)COCCC12CCC(OCc3cc(F)cc(Oc4ccccc4)c3)(CC1)C2  human GPR120 (Homo sapiens (Human))       570

[P] O=C(O)[C@@H]1C[C@H]1CC12CCC(OCc3cc(F)cc(Oc4ccccc4)c3)(CC1)C2 (single isomer, unassigned)
[Q] Cc1cc(COC23CCC(CCCC(=O)O)(CC2)C3)cc(OC(F)(F)F)c1
[R] O=C(O)CCCC12CCC(OCc3c(Cl)ccc(Cl)c3Cl)(CC1)C2
[S] O=C(O)CCCC12CCC(OCc3cc(F)cc(OC(F)(F)F)c3)(CC1)C2
IN: Rank order required: EC50, descending. Show the ranking through the labels, in the order asked for.
OUT: P, R, S, Q

[I] O=C(O)CCCC12CCC(OCc3cccc(C(F)(F)F)c3Cl)(CC1)C2
[II] O=C(O)C1CC1CC12CCC(OCc3cccc(Oc4ccccc4)c3)(CC1)C2 (stereo not drawn)
[III] CC(C)Oc1cccc(COC23CCC(CCCC(=O)O)(CC2)C3)c1
IN: Rank entries according to their EC50, from the largest number down. Thanks in advance for listing the labels in the requested order.
OUT: III, II, I
(III: 1680 nM, II: 510 nM, I: 170 nM)

[P] O=C(O)CCCC12CCC(OCc3cc(Cl)ccc3F)(CC1)C2
[Q] COc1cc(COC23CCC(CCCC(=O)O)(CC2)C3)cc(OC)c1
IN: Lab note: check whether P or Q shows the higher recorded EC50. Your answer should be the label attached to the chosen record.
OUT: Q

###

- Measurement target: human GPR120 (Homo sapiens (Human))
- Assay: GPR120 pERK AlphaScreen SureFire Assay (human GPR120 pERK assay)
- Study conditions: CHOA12 or CHO-K1 cells stably transfected with the short form of human GPR120 receptor; phosphorylated ERK; read-out: EC50 values measured in the human GPR120 pERK assay
pEC50: −log10 of the molar value.
Reported metric: pEC50

Completed entries (count: 2):
> print(dat)
                                   compound                   measurement.target  observed
1  OCC(O)CCC12CCC(OCc3cc(F)cc(Oc4ccccc4)c3)(CC1)C2 (single isomer, unassigned) [Example 97]  human GPR120 (Homo sapiens (Human))      5.61
2  O=C(O)CCCC12CCC(OCc3ccccc3-c3ccccc3)(CC1)C2  human GPR120 (Homo sapiens (Human))      6.49

[P] O=C(O)CCCC12CCC(OCc3cccc(Oc4ccc(F)cc4)c3)(CC1)C2
[Q] O=C(O)CCCC12CCC(OCc3cccc(F)c3F)(CC1)C2
IN: I'm curious whether P or Q has the smaller pEC50 number. Which is it? State your choice using its label.
OUT: Q
(Q: 5.21, P: 6.60)

###

- Measurement target: UniProt:Q5NUL3
- Assay: GPR120 pERK AlphaScreen SureFire Assay (human GPR120 pERK assay)
- Study conditions: CHOA12 or CHO-K1 cells stably transfected with the short form of human GPR120 receptor; phosphorylated ERK; read-out: EC50 values measured in the human GPR120 pERK assay
pEC50: −log10 of the molar value.
Reported metric: pEC50

> print(dat)
                                    molecule  reported.metric  observed
 1  O=C(O)CCCC12CCC(OCc3ccccc3Oc3ccccc3)(CC1)C2 [Example 14]            pEC50      6.57
 2  O=C(O)CCCC12CCC(OCc3cccc(Cl)c3)(CC1)C2 [Example 23]            pEC50      5.94
 3  COc1cc(Cl)cc(COC23CCC(CCCC(=O)O)(CC2)C3)c1 [Example 31]            pEC50      6.05
 4  O=C(O)CCCC12CCC(OCc3cc(F)cc(Cl)c3)(CC1)C2 [Example 22]            pEC50      6.14
 5  O=C(O)CCCC12CCC(OCc3c(F)ccc(F)c3F)(CC1)C2 [Example 47]            pEC50      5.11
 6  O=C(O)/C=C/CC12CCC(OCc3cccc(Oc4ccccc4)c3)(CC1)C2 [Example 94]            pEC50      6.20
 7  O=C(O)COCC12CCC(OCc3cc(F)cc(Oc4ccc(F)cc4)c3)(CC1)C2 [Example 75]            pEC50      5.73
 8  O=C(O)CCC12CCC(OCCc3ccccc3Oc3ccccc3)(CC1)C2 [Example 86]            pEC50      5.16
 9  O=C(CCCC12CCC(OCc3cccc(Oc4ccccc4)c3)(CC1)C2)N1CC(O)C1 [Example 85]            pEC50      5.62
10  CC1(C)Cc2cc(Cl)cc(COC34CCC(CCC(=O)O)(CC3)C4)c2O1 [Example 71]            pEC50      5.18

[I] O=C(O)COCC12CCC(OCc3cc(Cl)cc(OC(F)(F)F)c3)(CC1)C2 [Example 78]
[II] OCCC12CCC(OCc3cc(F)cc(Oc4ccccc4)c3)(CC1)C2 [Example 99]
IN: From the items above, decide which of I and II has the lower pEC50 reading. Please indicate the selected item by its label.
OUT: II

[P] CC1(C)Cc2cc(Cl)cc(COC34CCC(CCCO)(CC3)C4)c2O1 [Example 70]
[Q] O=C(O)COCC12CCC(OCc3cccc(Oc4ccccc4)c3)(CC1)C2 [Example 74]
[R] O=C(O)[C@H]1C[C@@H]1CC12CCC(OCc3cc(F)cc(Oc4ccccc4)c3)(CC1)C2 (single isomer, unassigned) [Example 92]
IN: Rank items: key pEC50, increasing. Use the labels to give the ranking in the order requested.
OUT: P, Q, R
(P: 5.14, Q: 5.84, R: 6.22)

[a] O=C(O)CCCC12CCC(OCc3cccc(C(F)(F)F)c3)(CC1)C2 [Example 65]
[b] O=C(O)CCCC12CCC(OCc3cc(Cl)cc(OC(F)(F)F)c3)(CC1)C2 [Example 18]
IN: Return label of the item with the larger pEC50. Candidates: a , b . Choose, then provide that item's label.
OUT: b

###

- Measurement target: human GPR120 (Homo sapiens (Human))
- Assay: GPR120 pERK AlphaScreen SureFire Assay (human GPR120 pERK assay)
- Study conditions: CHOA12 or CHO-K1 cells stably transfected with the short form of human GPR120 receptor; phosphorylated ERK; read-out: EC50 values measured in the human GPR120 pERK assay
- Protocol: GPR120 activity was monitored by measuring phosphorylation of ERK (pERK), since G protein receptors are known to activate the ERK signaling cascade either directly and/or through recruitment of arrestin that serves as a scaffold for downstream signaling events. […] The media was then dumped and cells lysed with 20 μL of 1× Lysis buffer from the AlphaScreen SureFire Phospho-ERK 1/2 Kit (Perkin Elmer Cat. #6760617M). […] After correcting for background, EC50 values were determined. […]
pEC50: −log10 of the molar value.
Reported metric: pEC50

Worked examples, 6 molecules total:
> print(dat)
                                   molecule                   measurement.target  observed
1  O=C(O)CCCC12CCC(OCc3cc(Cl)ccc3OC(F)(F)F)(CC1)C2  human GPR120 (Homo sapiens (Human))      6.28
2  CC1(C)Cc2cc(Cl)cc(COC34CCC(COCC(=O)O)(CC3)C4)c2O1  human GPR120 (Homo sapiens (Human))      5.34
3  CC(C)Oc1cc(F)cc(COC23CCC(CCCC(=O)O)(CC2)C3)c1  human GPR120 (Homo sapiens (Human))      6.36
4  O=C(O)C1CC1CC12CCC(OCc3cc(F)cc(Oc4ccccc4)c3)(CC1)C2 (racemic)  human GPR120 (Homo sapiens (Human))      6.55
5  O=C(O)COCC12CCC(OCc3cc(F)cc(Oc4ccccc4)c3)(CC1)C2  human GPR120 (Homo sapiens (Human))      5.79
6  O=C(O)CCCC12CCC(OC3CCc4c(Cl)cc(Cl)cc43)(CC1)C2 (stereo not drawn)  human GPR120 (Homo sapiens (Human))      6.22

[I] O=C(O)CCCC12CCC(OCc3ccccc3Cl)(CC1)C2
[II] O=C(O)CCCC12CCC(OCc3cccc(Cl)c3F)(CC1)C2
[III] Cc1cc(COC23CCC(CCCC(=O)O)(CC2)C3)n(-c2ccc(Cl)cc2)n1
IN: Task for the reader: rank each entry by its pEC50, from the minimum upward. Form field (ranking): labels in requested order.
OUT: I, III, II

FYI, the data here is from patent US9518000B2.
